Hey, just so you know, these numbers are from patent US20220313774A1.

assayComment: Trial 000015 Part 2: pharmacokinetics after multiple intranasal administrations
Type: in vivo, human
recordedConditions: female, human, plasma, inhaled or intranasal, 400 ug, multiple i.n. doses every 3 hours, 400 μg, Dose No. 1; read-out: AUCt Median
*1 amine or outer side, *2 acyl side, *3 side chain or, on linkers, in order; H or OH if unused. Where a SMILES comes first, the peptide text is derived from it. Bridges are numbered along the chain shown (N, C = ends). [ ]: non-standard residue; d: D form. N(4-F-Bzl)Gly = O=C(O)CNCc1ccc(F)cc1; X1 = O=C(CCC[*:2])[*:1]
recordedMetric: AUC(0-t) (ng·h/mL)
Entry rule: numbers only, all in ng·h/mL.

[in] Endpoint output: AUC(0-t) of CC[C@H](C)[C@@H]1NC(=O)[C@H](Cc2ccc(O)cc2)NC(=O)CCCSC[C@@H](C(=O)N(CC(=O)N[C@@H](CC(C)C)C(=O)NCC(N)=O)Cc2ccc(F)cc2)NC(=O)[C@H](CC(N)=O)NC(=O)[C@H](CCC(N)=O)NC1=O [merotocin] (YIQNC[N(4-F-Bzl)Gly]LG-NH2; linker N-5 via X1) . Value?
[out] 0.0702

* * *

assayComment: Trial 000015 Part 3: pharmacokinetics, single intranasal and single intravenous cross-over
recordedConditions: female, human, plasma, other: intranasal, 400 μg, mean Cmax, single dose i.n. administration, highest dose group
*1 amine or outer side, *2 acyl side, *3 side chain or, on linkers, in order; H or OH if unused. Where a SMILES comes first, the peptide text is derived from it. Bridges are numbered along the chain shown (N, C = ends). [ ]: non-standard residue; d: D form. N(4-F-Bzl)Gly = O=C(O)CNCc1ccc(F)cc1; X1 = O=C(CCC[*:2])[*:1]
recordedMetric: Cmax (ng/mL)
Entry rule: numbers only, all in ng/mL.

[in] Endpoint output: Cmax of CC[C@H](C)[C@@H]1NC(=O)[C@H](Cc2ccc(O)cc2)NC(=O)CCCSC[C@@H](C(=O)N(CC(=O)N[C@@H](CC(C)C)C(=O)NCC(N)=O)Cc2ccc(F)cc2)NC(=O)[C@H](CC(N)=O)NC(=O)[C@H](CCC(N)=O)NC1=O [merotocin] (YIQNC[N(4-F-Bzl)Gly]LG-NH2; linker N-5 via X1) . Value?
[out] 0.151

* * *

assayComment: Trial 000015 Part 2: pharmacokinetics after multiple intranasal administrations
Assay type: in vivo, human
recordedConditions: female, human, plasma, inhaled or intranasal, 200 ug, multiple i.n. doses every 3 hours, 200 μg, Dose No. 2; read-out: Cmax Median
Source text: The trial was divided into three parts: Part 2. Ascending multiple i.n. doses.
*1 amine or outer side, *2 acyl side, *3 side chain or, on linkers, in order; H or OH if unused. Where a SMILES comes first, the peptide text is derived from it. Bridges are numbered along the chain shown (N, C = ends). [ ]: non-standard residue; d: D form. N(4-F-Bzl)Gly = O=C(O)CNCc1ccc(F)cc1; X1 = O=C(CCC[*:2])[*:1]
recordedMetric: Cmax (ng/mL)
Entry rule: numbers only, all in ng/mL.

[in] Endpoint output: Cmax of CC[C@H](C)[C@@H]1NC(=O)[C@H](Cc2ccc(O)cc2)NC(=O)CCCSC[C@@H](C(=O)N(CC(=O)N[C@@H](CC(C)C)C(=O)NCC(N)=O)Cc2ccc(F)cc2)NC(=O)[C@H](CC(N)=O)NC(=O)[C@H](CCC(N)=O)NC1=O [merotocin] (YIQNC[N(4-F-Bzl)Gly]LG-NH2; linker N-5 via X1) . Value?
[out] 0.118

* * *

assayComment: Trial 000015 Part 2: pharmacokinetics after multiple intranasal administrations
Format: in vivo, human
recordedConditions: female, human, plasma, other: intranasal, 400 ug, multiple i.n. doses every 3 hours, 400 μg, Dose No. 16; read-out: AUCt Median
*1 amine or outer side, *2 acyl side, *3 side chain or, on linkers, in order; H or OH if unused. Where a SMILES comes first, the peptide text is derived from it. Bridges are numbered along the chain shown (N, C = ends). [ ]: non-standard residue; d: D form. N(4-F-Bzl)Gly = O=C(O)CNCc1ccc(F)cc1; X1 = O=C(CCC[*:2])[*:1]
recordedMetric: AUC(0-t) (ng·h/mL)
Entry rule: numbers only, all in ng·h/mL.

[in] Endpoint output: AUC(0-t) of CC[C@H](C)[C@@H]1NC(=O)[C@H](Cc2ccc(O)cc2)NC(=O)CCCSC[C@@H](C(=O)N(CC(=O)N[C@@H](CC(C)C)C(=O)NCC(N)=O)Cc2ccc(F)cc2)NC(=O)[C@H](CC(N)=O)NC(=O)[C@H](CCC(N)=O)NC1=O [merotocin] (YIQNC[N(4-F-Bzl)Gly]LG-NH2; linker N-5 via X1) . Value?
[out] 0.112
